measured on: recombinant CZP (cruzain) (Trypanosoma cruzi, UniProt P25779)
Construct: gift of Allison Doak and Prof; Brian Shoichet (University of California San Francisco)
test protocol: CZP inhibition, cleavage of fluorogenic substrate Z-FR-AMC (initial screening and IC50)
Format: biochemical, T. cruzi
condition description: 100 μM, 10 min pre-incubation of the enzyme with compound; read-out: % CZP inh.
Rule: inhibition at 100 µM of 10% or more gives rule met; anything lower gives rule not met.

compound	assigned label
O=CC(Cc1c[nH]c2ccccc12)n1cc(C(C2CCCCC2)N2CCc3ccccc3C2)nn1 (stereo not drawn)	rule met

Problem: State whether the measured inhibition at 100 µM reaches 10%, counting equality as reaching it, for COC(=O)[C@H](CCCCN)n1cc(C(NCc2ccc3c(c2)OCO3)C2CCCCC2)nn1 (stereo partly drawn)
Result: rule not met

Problem: Check if inhibition at 100 µM >= 10% (inclusive). Item: CCOC(=O)C(Cc1ccccc1)n1cc(C(C2CCCCC2)N2CCc3ccccc3C2)nn1 (stereo not drawn)
Result: rule met

Problem: Entry O=CC(c1ccccc1)n1cc(C(NCc2ccc3c(c2)OCO3)C2CCCCC2)nn1 (stereo not drawn) : is its inhibition at 100 µM no less than 10%?
Result: rule met

###

measured on: recombinant CZP (cruzain) (Trypanosoma cruzi)
Construct: gift of Allison Doak and Prof; Brian Shoichet (University of California San Francisco)
test protocol: CZP inhibition, cleavage of fluorogenic substrate Z-FR-AMC (initial screening and IC50)
Type: biochemical, T. cruzi
condition description: 100 μM, 10 min pre-incubation of the enzyme with compound; read-out: % CZP inh.
value type: inhibition at 100 µM (%)
The answer is to be given in %; state only the numeric part.

# annotated cases, reported inhibition at 100 µM shown
molecule	measured on	inhibition at 100 µM (%)
COC(=O)C(c1ccccc1)n1cc(C(C2CCCCC2)N2CCc3ccccc3C2)nn1 (stereo not shown)	recombinant CZP (cruzain) (Trypanosoma cruzi)	0
COC(=O)C(Cc1ccc(O)cc1)n1cc(C(C2CCCCC2)N2CCc3ccccc3C2)nn1 (stereo not shown)	recombinant CZP (cruzain) (Trypanosoma cruzi)	1
O=CC(Cc1c[nH]cn1)n1cc(C(NCc2ccc3c(c2)OCO3)C2CCCCC2)nn1 (stereo not shown)	recombinant CZP (cruzain) (Trypanosoma cruzi)	83

Shift focus to the following entry.
The value of inhibition at 100 µM measured for the molecule COC(=O)C(Cc1c[nH]c2ccccc12)n1cc(C(NCc2ccc3c(c2)OCO3)C2CCCCC2)nn1 (stereo not shown) turned out to be 15

###

Catalogue of compounds with associated IC50
measured on: recombinant CZP (cruzain) (Trypanosoma cruzi, UniProt P25779)
Construct: gift of Allison Doak and Prof; Brian Shoichet (University of California San Francisco)
test protocol: CZP inhibition, cleavage of fluorogenic substrate Z-FR-AMC (initial screening and IC50)
Assay type: biochemical, T. cruzi
condition description: 10 min incubation with CZP; mean ± SEM of two independent experiments; read-out: IC50 (μM) against CZP
Answer format: numeric, µM implied, no suffix.

The following compounds have reported results that may help.
compound	measured on	value type	measured number
O=CC(Cc1c[nH]c2ccccc12)n1cc(C(NCc2ccc3c(c2)OCO3)C2CCCCC2)nn1 (centres unmarked)	recombinant CZP (cruzain) (Trypanosoma cruzi, UniProt P25779)	IC50	45.4
COC(=O)C(CCCNC(=N)N)n1cc(C(NCc2ccc3c(c2)OCO3)C2CCCCC2)nn1 (centres unmarked)	recombinant CZP (cruzain) (Trypanosoma cruzi, UniProt P25779)	IC50	6.8
O=CC(Cc1c[nH]cn1)n1cc(C(NCc2ccc3c(c2)OCO3)C2CCCCC2)nn1 (centres unmarked)	recombinant CZP (cruzain) (Trypanosoma cruzi, UniProt P25779)	IC50	5

Per the records, this compound ( NCCCCC(C=O)n1cc(C(NCc2ccc3c(c2)OCO3)C2CCCCC2)nn1 (centres unmarked) ) has IC50 equal to 3.3

// IC50 lookup, compound = O=CC(Cc1ccc(O)cc1)n1cc(C(NCc2ccc3c(c2)OCO3)C2CCCCC2)nn1 (centres unmarked) , result: 13

###

measured on: recombinant CZP (cruzain) (Trypanosoma cruzi)
Construct: gift of Allison Doak and Prof; Brian Shoichet (University of California San Francisco)
test protocol: CZP inhibition, cleavage of fluorogenic substrate Z-FR-AMC (initial screening and IC50)
Assay type: biochemical, T. cruzi
In this section we review reported pIC50 values for a set of compounds.
pIC50 here: minus log base 10 of the concentration, concentration in moles per litre.

compound	value type	measured number
O=CC(CO)n1cc(C(C2CCCCC2)N2CCc3ccccc3C2)nn1 (stereo not shown) [Ald-20]	pIC50	5.15
O=CC(Cc1ccccc1)n1cc(C(NCc2ccc3c(c2)OCO3)C2CCCCC2)nn1 (stereo not shown) [Ald-1]	pIC50	4.39
CC(C)CC(C=O)n1cc(C(NCc2ccc3c(c2)OCO3)C2CCCCC2)nn1 (stereo not shown) [Ald-5]	pIC50	5.15

Record O=CC(CO)n1cc(C(NCc2ccc3c(c2)OCO3)C2CCCCC2)nn1 (stereo not shown) [Ald-10] ; system recombinant CZP (cruzain) (Trypanosoma cruzi); pIC50 = 5.47

###

measured on: recombinant human cathepsin L (hCatL) (Homo sapiens)
Construct: purchased Sigma-Aldrich
Sequence (P07711 114-333): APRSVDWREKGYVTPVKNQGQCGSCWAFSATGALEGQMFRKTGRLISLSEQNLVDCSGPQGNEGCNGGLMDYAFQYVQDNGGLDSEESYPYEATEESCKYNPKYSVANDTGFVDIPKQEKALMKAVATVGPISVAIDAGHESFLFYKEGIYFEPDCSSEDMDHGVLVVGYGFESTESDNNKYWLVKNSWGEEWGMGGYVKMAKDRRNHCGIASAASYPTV
test protocol: hCatL screening, cleavage of Z-FR-AMC
Format: biochemical
condition description: 10 min incubation, read-out: % hCatL inhib.
value type: inhibition at 100 µM (%)
The response must be a number in % with no trailing unit.

molecule	u	measured number
CC(C)CC(C=O)n1cc(C(NCc2ccc3c(c2)OCO3)C2CCCCC2)nn1 (stereo not shown) [Ald-5]	%	24
COC(=O)C(CCCNC(=N)N)n1cc(C(NCc2ccc3c(c2)OCO3)C2CCCCC2)nn1 (stereo not shown) [Es-15]	%	26
O=CC(Cc1ccccc1)n1cc(C(NCc2ccc3c(c2)OCO3)C2CCCCC2)nn1 (stereo not shown) [Ald-1]	%	0

Kindly consider the entry below.
Case O=CC(Cc1c[nH]c2ccccc12)n1cc(C(NCc2ccc3c(c2)OCO3)C2CCCCC2)nn1 (stereo not shown) [Ald-12] , recombinant human cathepsin L (hCatL) (Homo sapiens), inhibition at 100 µM recorded as 0

###

System: T. cruzi (Tulahuen trypomastigotes overexpressing β-galactosidase) in Vero cells
test protocol: T. cruzi inhibition assay, infection model in Vero cells, β-galactosidase activity
Format: cell-based, Trypanosoma cruzi
condition description: Trypanosoma cruzi, TULAHUEN, Vero, read-out: IC50^Tc
value type: pIC50
// pIC50 is dimensionless: -log10 of concentration (M)

For record NCCCCC(C=O)n1cc(C(NCc2ccc3c(c2)OCO3)C2CCCCC2)nn1 (stereo not shown) the listed pIC50 is 5.49

###

measured on: CZP (Trypanosoma cruzi)
Sequence (P25779 123-337): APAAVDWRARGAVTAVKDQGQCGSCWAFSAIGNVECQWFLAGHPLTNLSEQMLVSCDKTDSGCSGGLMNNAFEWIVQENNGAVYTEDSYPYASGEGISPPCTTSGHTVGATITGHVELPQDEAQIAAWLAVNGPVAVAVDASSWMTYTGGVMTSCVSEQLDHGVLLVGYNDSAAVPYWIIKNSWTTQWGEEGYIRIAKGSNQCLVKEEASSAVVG
value type: Ki
Report as: number unit

For COC(=O)C(CCCNC(=N)N)n1cc(C(NCc2ccc3c(c2)OCO3)C2CCCCC2)nn1 (stereo not shown) [Es-15] the compound record lists Ki as 3 µM

###

measured on: recombinant CZP (cruzain) (Trypanosoma cruzi)
Construct: gift of Allison Doak and Prof; Brian Shoichet (University of California San Francisco)
test protocol: CZP inhibition, cleavage of fluorogenic substrate Z-FR-AMC (initial screening and IC50)
Assay type: biochemical, T. cruzi
condition description: 100 μM, 10 min pre-incubation of the enzyme with compound; read-out: % CZP inh.
value type: inhibition at 100 µM (%)
State just the number; it will be interpreted in %.

Before answering, review these 5 worked examples.
compound	inhibition at 100 µM, %
O=CC(Cc1ccc(O)cc1)n1cc(C(NCc2ccc3c(c2)OCO3)C2CCCCC2)nn1 (centres unmarked) [Ald-13]	83
COC(=O)C(Cc1c[nH]cn1)n1cc(C(C2CCCCC2)N2CCc3ccccc3C2)nn1 (centres unmarked) [Es-17]	6
CC(O)C(C=O)n1cc(C(NCc2ccc3c(c2)OCO3)C2CCCCC2)nn1 (centres unmarked) [Ald-11]	58
O=CC(Cc1c[nH]cn1)n1cc(C(C2CCCCC2)N2CCc3ccccc3C2)nn1 (centres unmarked) [Ald-17]	38
COC(=O)C(Cc1c[nH]c2ccccc12)n1cc(C(C2CCCCC2)N2CCc3ccccc3C2)nn1 (centres unmarked) [Es-22]	1

Kindly note the recorded inhibition at 100 µM for COC(=O)[C@H](Cc1ccccc1)n1cc(C(NCc2ccc3c(c2)OCO3)C2CCCCC2)nn1 (some centres unmarked) [Es-1] , which is 15

Looking up O=CC(Cc1ccccc1)n1cc(C(C2CCCCC2)N2CCc3ccccc3C2)nn1 (centres unmarked) [Ald-16] , I see its inhibition at 100 µM listed as 34

Entry COC(=O)C(Cc1ccc(O)cc1)n1cc(C(NCc2ccc3c(c2)OCO3)C2CCCCC2)nn1 (centres unmarked) [Es-13] — recorded inhibition at 100 µM = 8

Please fill in: inhibition at 100 µM reported for COC(=O)C(C)n1cc(C(NCc2ccc3c(c2)OCO3)C2CCCCC2)nn1 (centres unmarked) [Es-8] = 8

Kindly note the recorded inhibition at 100 µM for O=CC(CO)n1cc(C(C2CCCCC2)N2CCc3ccccc3C2)nn1 (centres unmarked) [Ald-20] , which is 83

In plain terms, NCCCCC(C=O)n1cc(C(NCc2ccc3c(c2)OCO3)C2CCCCC2)nn1 (centres unmarked) [Ald-6] has a documented inhibition at 100 µM of 81

Short answer for O=CC(CO)n1cc(C(NCc2ccc3c(c2)OCO3)C2CCCCC2)nn1 (centres unmarked) [Ald-10] : inhibition at 100 µM was 87
